Molecular target: T1, cynoNectin4-mFc (cyno, UniProt A0A2K5WES1 32-349)
T1 construct: Immobilized on the SPR chip; also called cyanoNectin4; not shown: mFc (mouse Fc)
T1 sequence: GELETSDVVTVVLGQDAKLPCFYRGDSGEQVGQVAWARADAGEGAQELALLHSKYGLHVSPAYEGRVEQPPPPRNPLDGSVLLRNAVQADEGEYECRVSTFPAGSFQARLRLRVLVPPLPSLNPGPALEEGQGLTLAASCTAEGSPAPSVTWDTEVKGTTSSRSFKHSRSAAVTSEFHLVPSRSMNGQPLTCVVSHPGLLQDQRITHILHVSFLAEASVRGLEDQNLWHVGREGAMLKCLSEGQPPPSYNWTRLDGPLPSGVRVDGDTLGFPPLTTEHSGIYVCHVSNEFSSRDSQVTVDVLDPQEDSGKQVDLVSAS
Test: SPR, cynoNectin4-mFc immobilized, pH 6.0
experimentalEndpoint: kon (M⁻¹ s⁻¹)
I only need the number, in M⁻¹ s⁻¹, no unit after it.

Query: Endpoint output: kon of BAP-143-00-05 (antibody, V domains shown, Used as a conjugate with a linker payload (CAB ADC)) VH: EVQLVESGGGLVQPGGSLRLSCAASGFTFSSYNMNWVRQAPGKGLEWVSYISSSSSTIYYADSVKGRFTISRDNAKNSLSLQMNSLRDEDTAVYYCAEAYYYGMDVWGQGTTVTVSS VL: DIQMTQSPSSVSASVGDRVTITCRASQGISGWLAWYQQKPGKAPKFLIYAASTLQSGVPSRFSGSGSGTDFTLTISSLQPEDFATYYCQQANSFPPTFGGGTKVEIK . Value?
Response: 639000

Query: Further, for BAP-143-00-03 (antibody, V domains shown, Used as a conjugate with a linker payload (CAB ADC)) VH: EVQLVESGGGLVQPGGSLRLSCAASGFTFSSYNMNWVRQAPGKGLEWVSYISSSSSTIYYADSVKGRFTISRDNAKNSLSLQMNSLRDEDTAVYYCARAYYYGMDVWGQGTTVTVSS VL: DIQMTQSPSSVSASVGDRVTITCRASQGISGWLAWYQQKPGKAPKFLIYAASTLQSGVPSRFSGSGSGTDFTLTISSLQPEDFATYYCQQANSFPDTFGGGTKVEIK ?
Response: 1.01e+06

Consider now this further binder.
Query: Tell me the measured kon of BAP-143-00-01 (antibody, V domains shown, Used as a conjugate with a linker payload (CAB ADC)) VH: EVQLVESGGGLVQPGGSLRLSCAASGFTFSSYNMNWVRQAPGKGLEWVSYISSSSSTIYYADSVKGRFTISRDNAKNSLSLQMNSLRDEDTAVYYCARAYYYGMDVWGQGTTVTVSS VL: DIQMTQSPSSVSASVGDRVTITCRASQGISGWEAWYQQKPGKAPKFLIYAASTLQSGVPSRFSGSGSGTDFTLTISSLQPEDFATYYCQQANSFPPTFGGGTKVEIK , please.
Response: 817000
